Data origin, for the record: ChEMBL document CHEMBL1201862

System: NCI-H226
Experiment: NCI tumour cell line growth inhibition, 48 h
Active and inactive are the calls of the source. No stated cut-off is given here; in the data, active = GI50 up to about 1.1 µM and inactive = higher.
Measured GI50 values are reported for all entries that follow.

The compound O=C1OC(=O)C2C1C1C(c3ccccc3)=C(c3ccccc3)C2(O)C2C(=O)OC(=O)C12 (stereo not given) showed GI50 equal to > 100 µM (inactive)

The compound CC(=O)Nc1ccc(C(=O)NN2C(=O)CSC2c2ccccc2)cc1 (stereo not given) showed GI50 equal to > 100 µM (inactive)

Further cases:
The compound O=C1c2cc([N+](=O)[O-])cnc2S(=O)(=O)N1c1ccc(Oc2ccccc2)cc1 showed GI50 equal to > 100 µM (inactive)

The compound O=S(=O)(CC#CCS(=O)(=O)c1ccccc1)c1ccccc1 showed GI50 equal to 14.6 µM (inactive)

The compound O=[N+]([O-])c1cccc(C(O)/C(=N/O)c2nc3ccc(Cl)cc3nc2O)c1 (stereo not given) showed GI50 equal to > 100 µM (inactive)

====

Tested on: DU-145
Test: NCI tumour cell line growth inhibition, 48 h
Calls of active or inactive are those of the source. Cut-off read from the data, not from the text of the source: active = GI50 up to about 1.1 µM and inactive = higher.
Write down the outcome that applies. Available outcomes: active, inactive

For orientation, consider the following solved cases.
Q: For Cc1cn([C@@H]2C[C@H]2CO)c(=O)[nH]c1=O , which call appears in the assay record?
A: inactive

Q: For COC1CC(OC2C(C)OC(OC3C(C)OC(OC4C(C)OC(O[C@H]5CC[C@@]6(C)C(=CC[C@]7(O)[C@@H]6C[C@@H](OC(=O)/C=C/c6ccccc6)[C@@]6(C)[C@]7(O)CC[C@@]6(O)C(C)=O)C5)CC4OC)CC3OC)CC2OC)OC(C)C1O (stereo partly specified) , which call appears in the assay record?
A: inactive

Q: For O=C1N/C(=N\C2CCCCC2)C2(CCN(CCCC3(c4ccc(F)cc4)OCCO3)CC2)N1c1ccccc1 , which call appears in the assay record?
A: inactive

Q: For CC(=O)OCC1OC(c2c(OC(C)=O)cc(C)c3c(=O)cc(/C(C(C)=O)=C(\C)O)oc23)C(OC(C)=O)C(OC(C)=O)C1OC(C)=O (stereo unspecified) , which call appears in the assay record?
A: inactive

Q: For O=C(NCCCCNCCCNC(=O)OCc1ccccc1)OCc1ccccc1 , which call appears in the assay record?
A: inactive

Q: For COC(=O)c1cc2c(cc1O)[C@@H](NC(C)=O)CCc1cc(OC)c(OC)c(OC)c1-2 , which call appears in the assay record?
A: active

Further cases:
Q: For C#CCNC(CSSCC(N)C(=O)O)C(=O)O (stereo unspecified) , which call appears in the assay record?
A: inactive

Q: For CCC/C(Cl)=N\OC(=O)Nc1ccc(F)cc1 , which call appears in the assay record?
A: inactive

Q: For NC(=S)Nc1ccc2c(c1)oc1ccccc12 , which call appears in the assay record?
A: inactive

Q: For Oc1ccc(-c2nc3ccc(Cl)cc3s2)cc1 , which call appears in the assay record?
A: inactive

Q: For CCOC(=O)NNC1(SC)NC(=O)c2c(cc(Cl)oc2=O)O1 (stereo unspecified) , which call appears in the assay record?
A: inactive

====

Measured GI50 values are reported for all entries that follow.
System: SK-OV-3
Experiment: NCI tumour cell line growth inhibition, 48 h
Active and inactive are the calls of the source. Rule as the data show it: active = GI50 up to about 1.1 µM and inactive = higher.

The compound CNC(=O)N(CCC#N)CCCN(C(=O)NC)c1ccccc1 showed GI50 equal to > 100 µM (inactive)

Further cases:
The compound CC(=O)/C(=C\n1c(=S)[nH]c2ccc([N+](=O)[O-])cc21)C(=O)Nc1ccccc1C showed GI50 equal to > 100 µM (inactive)

The compound O=[N+]([O-])c1ccc(C2SCc3nc4ccccc4n32)cc1 (configuration not stated) showed GI50 equal to 92.9 µM (inactive)

The compound C[C@]12Cc3conc3C(O)=C1CC[C@@H]1C2CC[C@@]2(C)C1CC[C@]2(C)O (some centres not stated) showed GI50 equal to 24.3 µM (inactive)

The compound CN1C(=O)C(C(N)=O)C2CC1(C)Oc1ccccc12 (configuration not stated) showed GI50 equal to > 100 µM (inactive)

The compound Cc1cc2c(ccc3c(C)cc(=O)oc32)o1 showed GI50 equal to > 100 µM (inactive)

The compound [N-]=[N+]=NC1=C(c2ccccn2)C(=O)c2cccc3cccc1c23 showed GI50 equal to 36.7 µM (inactive)

The compound COC(OC)c1cccnc1C showed GI50 equal to > 100 µM (inactive)

The compound C[C@]12CCC3[C@@H](CC[C@@H]4c5nonc5CC[C@]34C)C1C/C(=N/O)C2=O (some centres not stated) showed GI50 equal to 38.8 µM (inactive)

The compound COc1ccc(C(=O)C(C(=O)CCC(=O)Nc2cccc(C(F)(F)F)c2)c2ccccc2)cc1 (configuration not stated) showed GI50 equal to > 100 µM (inactive)

The compound COc1ccc(C(=O)O[C@H]2[C@@H]3C=CO[C@@H](OC4OC(CO)C(O)C(O)C4O)[C@@H]3[C@@]3(CO)O[C@@H]23)cc1O (some centres not stated) showed GI50 equal to > 100 µM (inactive)

The compound CON(C)C(=O)CCCO showed GI50 equal to > 10 µM (inactive)

The compound CN1CN(c2ccccc2)C2(CCN(CCC3COc4ccccc4O3)CC2)C1=O (configuration not stated) showed GI50 equal to 26.6 µM (inactive)

The compound CCOC(=O)NC(NCC(O)c1ccccc1)(C(F)(F)F)C(F)(F)F (configuration not stated) showed GI50 equal to > 100 µM (inactive)

The compound Cc1[nH]c(O)nc1C(=O)c1ccc(-n2ccnc2)cc1 showed GI50 equal to > 100 µM (inactive)

The compound CSc1nc(NC(C)C)c2c(n1)Sc1nc3ccccc3n1N=C2 showed GI50 equal to 11.1 µM (inactive)

The compound COc1ccc(C(=O)N(C(=S)OCCOc2ccccc2)c2ccccc2)cc1 showed GI50 equal to 52.7 µM (inactive)

The compound Oc1ccc(C[C@@H]2CN[C@H](Cc3ccc(O)c(Br)c3)CN2)cc1 showed GI50 equal to > 100 µM (inactive)

The compound CCOC(=O)CN1CC(C2=C(O)CN(CC(=O)OCC)C2=O)=CC1=O showed GI50 equal to > 100 µM (inactive)

The compound C[C@]12CCC3[C@@H](CC[C@@H]4c5nonc5CC[C@]34C)C1CCC2=O (some centres not stated) showed GI50 equal to 36.7 µM (inactive)

The compound Cc1cn2c(/C=N/NC(=N)N)c(-c3ccc([N+](=O)[O-])cc3)nc2s1 showed GI50 equal to 1.76 µM (inactive)

The compound O=C1c2ccccc2C(=O)c2c(O)c(O)cc(O)c21 showed GI50 equal to 31.8 µM (inactive)
